Entry source: ChEMBL document CHEMBL1201862

We begin with a simple list: items and their reported GI50.
system: CAKI-1; assay: NCI tumour cell line growth inhibition, 48 h
The source made the active and inactive calls. Cut-off read from the data, not from the text of the source: active = GI50 up to about 1.1 µM and inactive = higher.

Solved entries:
compound	GI50
C=CCc1ccc(O)c(-c2cc(C3Oc4c(-c5cc(CC=C)ccc5O)cc(O)cc4[C@@H]3CO)ccc2O)c1 (some centres not stated)	47.3 µM (inactive)
C/C(=N\NS(=O)(=O)c1ccccc1)c1ccc[n+]([O-])n1	34.1 µM (inactive)
Cn1c2ccccc2c2ccc3c(c21)C(=O)c1ccc2c4ccccc4n(C)c2c1C3=O	> 100 µM (inactive)
Clc1c(Cl)c2c(Cl)c(Cl)c1C[PH](c1ccccc1)(c1ccccc1)CC[PH](c1ccccc1)(c1ccccc1)Cc1c(Cl)c(Cl)c(c(Cl)c1Cl)C[PH](c1ccccc1)(c1ccccc1)CC[PH](c1ccccc1)(c1ccccc1)C2	7.06 µM (inactive)
OCC1OC(n2ccc3cnccc32)CC1O (configuration not stated)	> 100 µM (inactive)

Need GI50 of `CCOc1cc(/C=N\O)cc(/C=N/O)c1O` , thanks.
21.9 µM (inactive)

Need GI50 of COc1cc2c(cc1OC)C1CCc3ccccc3CN1CC2 (configuration not stated) , thanks.
> 100 µM (inactive)

Need GI50 of `COc1ccc(NC(=O)CC/C(CC(=O)c2ccccc2Cl)=N\Nc2nnc(C)n2N)cc1` , thanks.
> 100 µM (inactive)

Need GI50 of CC(=O)NC1C(OCc2ccccc2)OC(CO)C(O)C1OC(C)C(=O)NC(C(=O)NC(CCC(=O)NCCCC(=O)Nc1ccc2c(c1)CN1C(=O)c3ccccc3C1=N2)C(N)=O)C(C)C (configuration not stated) , thanks.
> 100 µM (inactive)

Need GI50 of `C/C(=N/O)c1ccc2c(c1)/C(=N/O)c1cc(/C(C)=N/O)ccc1-2` , thanks.
35.8 µM (inactive)

Need GI50 of `Cn1c2ccccc2n2c3ncccc3/c(=N/CCCC(=O)O)c(C#N)c12` , thanks.
> 100 µM (inactive)

Need GI50 of COc1cc(CC(C)C(C)Cc2ccc(O)c(OC)c2)ccc1O (configuration not stated) [DIHYDROGUAIARETIC ACID] , thanks.
16.9 µM (inactive)

Need GI50 of COc1ccc(C2c3cc4c(cc3OC(N3CCOCC3)C2C)OCO4)c(OC)c1 (configuration not stated) , thanks.
4.47 µM (inactive)

Need GI50 of `O=C(Nc1ccccc1)c1cc(S(=O)(=O)Nc2n[nH]c(=O)n2-c2ccccc2)c(S)cc1Cl` , thanks.
> 100 µM (inactive)

Need GI50 of `Cc1nc2sccn2c1C(=O)NN` , thanks.
> 100 µM (inactive)

Need GI50 of `COc1nc2[nH]ccc2c(=O)[nH]1` , thanks.
> 100 µM (inactive)

Need GI50 of `O=C(/C=C/c1ccc(O)c(O)c1)c1cc(O)cc(O)c1` , thanks.
> 100 µM (inactive)

###

system: 786-0; assay: NCI tumour cell line growth inhibition, 48 h
Activity calls are given as the source filed them. Rule as the data show it: active = GI50 up to about 1.1 µM and inactive = higher.
We begin with a simple list: items and their reported GI50.

molecule	GI50
C=C(Cl)/C(=C\Cl)CCC(Cl)C(C)C (stereo not drawn)	> 100 µM (inactive)
COC(=O)C(Cc1ccccc1)NC(=O)c1ccc(CNC(=S)NCc2cccc(CNC(=S)NCc3ccccc3)c2)cc1 (stereo not drawn)	> 34.6 µM (inactive)
CN1C(=O)C(O)CC1c1cccc(C(F)(F)F)c1 (stereo not drawn)	> 100 µM (inactive)
Cc1c2c(c(C)c3c[n+](C)ccc13)Oc1ccccc1O2	6.62 µM (inactive)
CCCCC1=C(C(=O)N2CCOCC2)C2(OCCO2)C1=O	18.2 µM (inactive)
CCC12C=CCN3CCC4(c5cc(C(c6ccc(OC)cc6)C6Cc7ccccc7N6)c(OC)cc5N(C)C4C(O)(C(=O)OC)C1O)C32 (stereo not drawn)	18.7 µM (inactive)

Need GI50 of O=C(CC(=O)N1N=C(c2ccccc2)C(/N=N/c2ccc(S(=O)(=O)CCOS(=O)(=O)O)cc2)C1=O)Nc1ccc(Cl)cc1 (stereo not drawn) , thanks.
> 100 µM (inactive)

Need GI50 of CC1COS(=O)N1c1ccccc1 (stereo not drawn) , thanks.
> 100 µM (inactive)
